Method notes: In vivo pharmacokinetic assay in male SD rats
Measurement setup: rat, serum, data not shown, read-out: maximum serum concentration (Cmax)
Metric: Cmax (nM)
Give the value in nM but do not write nM after it.

Qu. I'd like to know its Cmax. The compound in question is C=CC(=O)Nc1cc(Nc2nccc(-c3cn(C)c4ccccc34)n2)c(OC)cc1N(C)CCN(C)C
Ans. 220
